Where these numbers come from: patent US20100279990A1

system: CEM/C1 cell-lines (camptothecin resistant human T-cell leukemia); assay: Viability of CEM/C1 cell-line, alamar blue; format: cell-based; conditions: 1-30 μM
pIC50: −log10 of the molar value.
// reported pIC50 per item
reported.endpoint: pIC50

OCCCC#Cc1cc2c(cc1OC[C@@H]1CNCC[C@H]1c1ccc(F)cc1)OCO2 :: 5.12
CN[C@H]1CC[C@@H](c2ccc(Cl)c(Cl)c2)c2ccc(C#CCCCOC)cc21.Cl [compound (Ic), hydrochloride] :: 4.87
CN[C@H]1CC[C@@H](c2ccc(Cl)c(Cl)c2)c2ccc(C#CCCCO)cc21 [compound (Ia), hydroiodide] :: 5.05
Fc1ccc([C@@H]2CCNC[C@H]2COc2ccc3c(c2)OCO3)cc1 [paroxetine, reference compound] :: 4.91

----------
system: human Jurkat lymphoma cells; experiment: Viability of human Jurkat lymphoma cells, alamar blue staining; format: cell-based; details: Homo sapiens, 48 hr, alamar blue, FIG. 1A, read-out: IC50, anti-proliferative activity
reported.endpoint: IC50 (µM)

CN[C@H]1CC[C@@H](c2ccc(Cl)c(Cl)c2)c2ccc(C#CCCCO)cc21 [compound (Ia), hydroiodide] :: 12.5
Fc1ccc([C@@H]2CCNC[C@H]2COc2ccc3c(c2)OCO3)cc1 [paroxetine, reference compound] :: 37.7
